target: Aminopeptidase B (Rattus norvegicus, UniProt O09175); assay: Compound was evaluated for its inhibitory potency against purified membrane bound rat brain Aminopeptidase B using L-lysine-beta napthylamide as substrate; format: functional
parameter: IC50

Please review the following examples before continuing.
Data point: COC(=O)[C@H](Cc1c[nH]c2ccccc12)NC(=O)[C@@H](O)[C@@H](N)CCCCN.COC(=O)[C@H](Cc1c[nH]c2ccccc12)NC(=O)[C@H](O)[C@@H](N)CCCCN ; IC50 = 500 µM

Data point: COC(=O)[C@@H](Cc1c[nH]c2ccccc12)NC(=O)[C@@H](O)[C@@H](N)CCCCN ; IC50 = > 1000 µM

Data point: COC(=O)[C@H](Cc1c[nH]c2ccccc12)NC(=O)[C@H](O)[C@H](N)CCCCN ; IC50 = > 1000 µM

Data point: COC(=O)[C@H](Cc1c(Sc2ccccc2[N+](=O)[O-])[nH]c2ccccc12)NC(=O)[C@@H](N)CCCCN ; IC50 = 400 µM

Please look at the items below and tell me IC50 for each one, in order.
1. COC(=O)[C@@H](Cc1c[nH]c2ccccc12)NC(=O)[C@H](O)[C@@H](N)CCCCN
2. COC(=O)[C@H](Cc1c[nH]c2ccccc12)NC(=O)[C@@H](O)[C@H](N)CCCCN.Cl.Cl

1: > 1000 µM; 2: > 1000 µM

---

Target: Aminopeptidase B (Rattus norvegicus)
Sequence (O09175 whole entry): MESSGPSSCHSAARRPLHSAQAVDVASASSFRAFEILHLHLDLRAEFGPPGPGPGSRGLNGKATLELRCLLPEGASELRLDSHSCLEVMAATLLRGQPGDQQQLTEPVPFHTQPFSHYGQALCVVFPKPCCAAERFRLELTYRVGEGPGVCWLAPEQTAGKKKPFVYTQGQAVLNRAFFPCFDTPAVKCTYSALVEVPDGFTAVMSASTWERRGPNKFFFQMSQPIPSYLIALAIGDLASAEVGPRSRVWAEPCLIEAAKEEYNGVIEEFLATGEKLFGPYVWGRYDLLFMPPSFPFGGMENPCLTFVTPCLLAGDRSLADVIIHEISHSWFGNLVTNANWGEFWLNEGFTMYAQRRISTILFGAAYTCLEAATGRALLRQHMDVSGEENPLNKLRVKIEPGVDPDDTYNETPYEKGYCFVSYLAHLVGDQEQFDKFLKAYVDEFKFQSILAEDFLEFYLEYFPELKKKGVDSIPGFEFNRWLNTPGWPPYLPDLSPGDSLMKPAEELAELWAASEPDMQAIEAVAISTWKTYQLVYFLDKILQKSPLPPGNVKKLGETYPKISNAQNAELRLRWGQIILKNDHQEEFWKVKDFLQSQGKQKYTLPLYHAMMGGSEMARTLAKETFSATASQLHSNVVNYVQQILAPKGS
Test: Compound was evaluated for its inhibitory potency against purified membrane bound rat brain Aminopeptidase B (AP-B) using L-lysine-beta napthylamide as substrate
parameter: pIC50
One number for each entry, as −log10 of the molar value.

Please review the following examples before continuing.
Data point: COC(=O)[C@H](Cc1c(Sc2ccccc2[N+](=O)[O-])[nH]c2ccccc12)NC(=O)[C@@H](O)[C@H](N)CCCCN ; pIC50 = 4.00

Data point: COC(=O)[C@@H](Cc1c(Sc2ccccc2[N+](=O)[O-])[nH]c2ccccc12)NC(=O)C(O)[C@H](N)CCCCN (stereo not given in full) ; pIC50 = 3.31

Data point: COC(=O)[C@@H](Cc1c(Sc2ccccc2[N+](=O)[O-])[nH]c2ccccc12)NC(=O)[C@H](O)[C@@H](N)CCCCN ; pIC50 = 3.01

Note: attention shifts to another entry.
Data point: COC(=O)[C@H](CC(C)C)NC(=O)[C@@H](O)[C@@H](N)CCCCN.COC(=O)[C@H](CC(C)C)NC(=O)[C@H](O)[C@@H](N)CCCCN ; pIC50 = 3.30
